test: Solid state stability for EKB-569 drug substance at 56° C./75% RH; type: physicochemical; details: drug substance, 56° C./75% RH, 3 Days
Assay endpoint: Total impurities (%)
Just the number in %, nothing appended.

[ask] GET /values?readout=Total impurities&item= CCOc1cc2ncc(C#N)c(Nc3ccc(F)c(Cl)c3)c2cc1NC(=O)C=CCN(C)C
[reply] 1.1

----------
assay: pH of excipient solutions and of crushed EKB-569 tablet slurries; format: physicochemical; details: 0.5% solution/suspension of basic excipient
Returns one of y or n; y when pH at 0.5% excipient, Excipient Solution is >= 10.

Some entries whose results are on file:
[[record]]
molecule = "O=C([O-])[O-].[Ca+2] [Calcium carbonate]"
assigned_class = "n"

[[record]]
molecule = "O=C([O-])O.[Na+] [Sodium bicarbonate]"
assigned_class = "n"

[[record]]
molecule = "N=C(N)NCCC[C@H](N)C(=O)O"
assigned_class = "y"

[[record]]
molecule = "O=C([O-])CN(CCN(CC(=O)[O-])CC(=O)[O-])CC(=O)[O-].[Na+].[Na+].[Na+].[Na+] [EDTA, tetra sodium]"
assigned_class = "y"


[ask] Could you please find out whether O=C([O-])[O-].[Na+].[Na+] [Sodium carbonate] has pH at 0.5% excipient, Excipient Solution that meets 10 or exceeds it?
[reply] y
